Here the recorded growth is given for each entry.
Test system: COLO 205 colon
procedure.summary: NCI-60 one-dose screen, 48 h (100 = growth as untreated, 0 = no growth, -100 = all killed)
test.parameters: 10 µM
This is part of a sample that, as a whole, favours compounds with a hit. Of some 83,000 tested, about 20% had one in any assay.
A number alone suffices; assume %.

Below: 10 compounds and their reported growth.
| compound | study.target | units.label | recorded.value |
| --- | --- | --- | --- |
| O=C1NC(=O)C(=Cc2cn(Cc3ccccc3)c3ccccc23)C(=O)N1 | COLO 205 colon | % | 18.3 |
| O=C1NC(=O)C(Cc2ccccc2)(Cc2ccccc2)C(=O)N1 | COLO 205 colon | % | 125 |
| OC1CCCCC1N1CCC(c2ccccc2)CC1 (stereo unspecified) | COLO 205 colon | % | 107 |
| Cc1ccc(C(=O)C2CN(C)CCC2(O)c2ccc(C)cc2)cc1 (stereo unspecified) | COLO 205 colon | % | 131 |
| CC(=O)O[C@H]1CCC2C3CCC4=C/C(=N/O)CCC4(C)C3CCC21C (stereo partly specified) | COLO 205 colon | % | 107 |
| CCN(CC)c1ccc(C=C2C(=O)NC(=S)NC2=O)cc1 | COLO 205 colon | % | 104 |
| CC12CCC(=O)C=C1C(O)CC1C2CCC2(C)C(O)CCC12 (stereo unspecified) | COLO 205 colon | % | 112 |
| CC(C)Nc1ccc(Nc2ccccc2)cc1 | COLO 205 colon | % | 43.6 |
| CCOC(=O)/C=C(\C)Nc1ccc(N/C(C)=C/C(=O)OCC)c2c1Oc1ccccc1O2 | COLO 205 colon | % | 121 |
| CC(=O)Nc1ccc(C=C2C(=O)NC(=O)NC2=O)cc1 | COLO 205 colon | % | 106 |

API: the following record is the query input.
Ask: Record request: growth value, item "CC1(C)CC2(CC(C)(C)c3cc(O)c(O)cc32)c2cc(O)c(O)cc21"
Result: 102

Numbers sourced from PubChem BioAssay (NCI).
